# target.of.assay: human PPARγ ligand-binding domain (Homo sapiens, UniProt P37231)
# Construct: The kit uses the human-derived recombinant PPARγ LBD tagged with an N-terminal GST-tag; purchased Invitrogen
# procedure.text: PolarScreen PPARγ-Competitor fluorescence polarization ligand binding assay
measurement.name: PPARγ binding (in words)

1. Oc1cc(Br)cc(Br)c1Oc1cc(Br)c(Br)cc1Br [6´-OH-BDE-99]: not active ligands
2. Oc1cc(Br)cc(Br)c1Oc1ccc(Br)cc1Br [6-OH-BDE-47]: not active ligands

* * *

I'd be grateful if you could share measured pKd for these entries.
# target.of.assay: human PPARγ ligand-binding domain (Homo sapiens)
# Construct: The kit uses the human-derived recombinant PPARγ LBD tagged with an N-terminal GST-tag; purchased Invitrogen
# Sequence (P37231 238-503 limits assumed): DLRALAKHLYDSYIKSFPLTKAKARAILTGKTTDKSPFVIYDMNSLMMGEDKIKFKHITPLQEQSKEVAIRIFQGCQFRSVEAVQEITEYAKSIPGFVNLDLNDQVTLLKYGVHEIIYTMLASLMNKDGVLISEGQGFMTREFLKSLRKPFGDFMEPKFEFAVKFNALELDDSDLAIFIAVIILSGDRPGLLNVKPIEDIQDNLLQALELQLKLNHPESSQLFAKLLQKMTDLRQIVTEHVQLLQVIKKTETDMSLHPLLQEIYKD
# procedure.text: PolarScreen PPARγ-Competitor fluorescence polarization ligand binding assay
# setup.conditions: read-out: Kd (dissociation constant)
pKd (log units): -log10 of the concentration in mol/L.

-- ask Look up pKd with human PPARγ ligand-binding domain (Homo sapiens) for this compound: Oc1cc(Oc2ccc(Br)cc2Br)c(Br)cc1Br
-- reply 5.79

-- ask Look up pKd with human PPARγ ligand-binding domain (Homo sapiens) for this compound: Oc1c(Cl)cc(Cl)cc1Cl
-- reply 4.28

-- ask Look up pKd with human PPARγ ligand-binding domain (Homo sapiens) for this compound: CC(C)(c1cc(Cl)c(O)c(Cl)c1)c1cc(Cl)c(O)c(Cl)c1
-- reply 5.57
